Reported IC50 by item:
target: Ret V804M (Homo sapiens (Human), UniProt P07949, V804M); assay: HTRF kinase inhibition assay, Ret V804M; format: biochemical; conditions: HTRF method
Sequence (P07949 29-1114 V804M): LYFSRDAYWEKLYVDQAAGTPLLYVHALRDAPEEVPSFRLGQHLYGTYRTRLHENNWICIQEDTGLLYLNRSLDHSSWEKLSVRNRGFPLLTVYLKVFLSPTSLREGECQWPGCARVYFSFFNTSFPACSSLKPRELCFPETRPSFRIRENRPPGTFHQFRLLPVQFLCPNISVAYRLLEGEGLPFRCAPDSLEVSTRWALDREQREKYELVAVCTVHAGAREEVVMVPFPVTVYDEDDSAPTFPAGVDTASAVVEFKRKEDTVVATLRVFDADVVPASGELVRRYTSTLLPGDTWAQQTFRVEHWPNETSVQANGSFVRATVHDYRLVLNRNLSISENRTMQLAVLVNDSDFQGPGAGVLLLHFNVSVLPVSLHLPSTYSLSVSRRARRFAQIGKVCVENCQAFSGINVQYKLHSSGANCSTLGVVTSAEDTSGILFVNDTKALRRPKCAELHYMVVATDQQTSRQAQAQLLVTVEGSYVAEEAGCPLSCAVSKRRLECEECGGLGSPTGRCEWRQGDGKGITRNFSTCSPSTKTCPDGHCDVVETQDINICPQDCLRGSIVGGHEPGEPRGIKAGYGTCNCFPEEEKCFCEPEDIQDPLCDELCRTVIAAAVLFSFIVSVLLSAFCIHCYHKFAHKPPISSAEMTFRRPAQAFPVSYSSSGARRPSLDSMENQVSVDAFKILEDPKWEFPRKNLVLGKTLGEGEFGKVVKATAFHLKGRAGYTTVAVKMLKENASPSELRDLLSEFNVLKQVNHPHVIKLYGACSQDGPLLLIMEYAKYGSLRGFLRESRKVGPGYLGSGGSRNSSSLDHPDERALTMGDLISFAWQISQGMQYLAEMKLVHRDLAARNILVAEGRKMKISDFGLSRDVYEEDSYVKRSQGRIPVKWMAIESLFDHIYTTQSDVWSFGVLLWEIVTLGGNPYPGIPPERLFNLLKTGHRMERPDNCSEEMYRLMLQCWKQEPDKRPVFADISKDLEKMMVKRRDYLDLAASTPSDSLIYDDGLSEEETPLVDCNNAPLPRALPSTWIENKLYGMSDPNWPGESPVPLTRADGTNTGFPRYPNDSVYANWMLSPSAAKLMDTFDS
Attribute Measured: IC50 (nM)

C#Cc1ccc(OC2CN(c3ccc(-c4cc(-c5cnn(C)c5)cn5ncc(C#N)c45)cn3)C2)cn1 : 0.2
Cn1cc(-c2cc(-c3ccc(N4CCN(C(=O)C#Cc5ccccc5)CC4)nc3)c3c(C#N)cnn3c2)cn1 : 5.53
C#Cc1ccc(C(=O)N2C3CC2CN(c2ccc(-c4cc(-c5cnn(C)c5)cn5ncc(C#N)c45)cn2)C3)nc1 : 2.75
Cn1cc(-c2cc(-c3ccc(N4CC5CC(C4)N5CC#Cc4cncc(F)c4)nc3)c3c(C#N)cnn3c2)cn1 : 0.91
